- measuredOn: T1, human interleukin-23 receptor (IL23R) (human, UniProt Q5VWK5 24-355, limits assumed)
- T1 construct: also called human IL23R
- T1 sequence (looked up): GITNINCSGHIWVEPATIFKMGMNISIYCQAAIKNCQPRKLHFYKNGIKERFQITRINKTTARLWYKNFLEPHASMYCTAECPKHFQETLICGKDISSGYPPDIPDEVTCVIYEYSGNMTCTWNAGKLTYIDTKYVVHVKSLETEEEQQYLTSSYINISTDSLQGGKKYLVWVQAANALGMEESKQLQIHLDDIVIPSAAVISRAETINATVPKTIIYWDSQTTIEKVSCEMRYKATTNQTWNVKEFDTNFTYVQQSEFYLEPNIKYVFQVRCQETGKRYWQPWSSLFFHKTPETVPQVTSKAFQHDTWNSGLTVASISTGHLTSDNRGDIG
- experimentNotes: SPR, scFv
measurementName: koff (s⁻¹)
Output spec: scalar in s⁻¹, unitless text.

Vκ3/VH2 consensus (uncapped), human IL23R specific scFv (scFv, scFv VL-linker-VH, made in E. coli; Vκ framework IV (uncapped, full consensus); also called Vκ3VH2 uncapped) scFv: DIVLTQSPATLSLSPGERATLSCQASENIYSFLAWYQQKPGQAPRLLIYSASKLAAGVPARFSGSGSGTDFTLTISSLEPEDFAVYYCQQTNRYSNPDIYNVFGQGTKVEIKRGGGGSGGGGSGGGGSGGGGSQVQLKESGPALVKPTQTLTLTCTFSGIDFNSNYYMCWIRQPPGKALEWLACIYVGSHVNTYYANWAKGRLTISKDTSKNQVVLTMTNMDPVDTATYYCATSGSSVLYFKFWGQGTLVTVSS; 0.000363

Now examine the next entry.
Inquiry: If you can, please state the reported koff value of Vκ3/VH2 consensus λ-capped, human IL23R specific scFv (scFv, scFv VL-linker-VH, made in E. coli; also called Vκ3VH2 capped) scFv: DIVLTQSPATLSLSPGERATLSCQASENIYSFLAWYQQKPGQAPRLLIYSASKLAAGVPARFSGSGSGTDFTLTISSLEPEDFAVYYCQQTNRYSNPDIYNVFGGGTKLTVLGGGGGSGGGGSGGGGSGGGGSQVQLKESGPALVKPTQTLTLTCTFSGIDFNSNYYMCWIRQPPGKALEWLACIYVGSHVNTYYANWAKGRLTISKDTSKNQVVLTMTNMDPVDTATYYCATSGSSVLYFKFWGQGTLVTVSS .
Reply text: 0.000152

Reference for the values: patent US20230242651A1
